Reported residual activity values are given for each entry in this list.
Target: Tyrosine-protein kinase Lyn (Homo sapiens) (UniProt P07948)
Sequence (P07948 2-512 limits assumed): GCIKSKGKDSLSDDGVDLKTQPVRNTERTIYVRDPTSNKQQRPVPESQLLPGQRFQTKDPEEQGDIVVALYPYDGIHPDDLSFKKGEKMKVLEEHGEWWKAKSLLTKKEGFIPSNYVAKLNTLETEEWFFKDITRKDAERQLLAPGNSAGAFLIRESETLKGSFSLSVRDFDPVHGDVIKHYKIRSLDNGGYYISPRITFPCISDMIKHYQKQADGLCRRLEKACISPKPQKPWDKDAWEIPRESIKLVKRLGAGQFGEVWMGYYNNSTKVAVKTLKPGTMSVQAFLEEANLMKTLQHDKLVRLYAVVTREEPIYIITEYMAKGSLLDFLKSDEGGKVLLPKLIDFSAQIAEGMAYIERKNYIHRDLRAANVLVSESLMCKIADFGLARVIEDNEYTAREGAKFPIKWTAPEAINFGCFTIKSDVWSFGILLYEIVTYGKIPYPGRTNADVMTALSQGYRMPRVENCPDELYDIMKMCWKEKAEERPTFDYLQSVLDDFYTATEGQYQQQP
Conditions: at 1 µM
measuredQuantity: residual activity (%)

INSERT INTO results (compoundstructure, valuemeasured) VALUES
  ('CN(C)CCCn1cc(C2=C(c3c[nH]c4ccccc34)C(=O)NC2=O)c2ccccc21', 79),
  ('Cc1ccc(NC2=CC(=O)c3sc(C)nc3C2=O)cc1', 80),
  ('Oc1ccc(Nc2nc(-c3ccc(Cl)cc3)cs2)cc1', 84),
  ('Oc1ccc(-c2nc(-c3ccc(F)cc3)c(-c3ccncc3)[nH]2)cc1', 66),
  ('O=C1Nc2ccc(Br)cc2/C1=C\c1cc2c([nH]1)CCCC2', 21),
  ('Nc1cccc(-c2cc3c(Oc4cccc(O)c4)ncnc3[nH]2)c1', 2),
  ('CC(C)n1cnc2c(NCc3ccccc3)nc(NCCCO)nc21', 53),
  ('CNc1cc2c(Nc3cccc(Br)c3)ncnc2cn1', 10),
  ('N#CCCc1ccc2c(c1)-c1[nH]c3ccc([N+](=O)[O-])cc3c1CC(=O)N2', 5),
  ('N#CC(C#N)=C(N)/C(C#N)=C/c1ccc(O)cc1', 93);
